Assay target: bovine GRK5 (Bos taurus)
Construct: when using full-length kinases as the receptor[37] instead of isolated kinase domains; made in house
Sequence (P43249 whole entry, the tested form may be a part): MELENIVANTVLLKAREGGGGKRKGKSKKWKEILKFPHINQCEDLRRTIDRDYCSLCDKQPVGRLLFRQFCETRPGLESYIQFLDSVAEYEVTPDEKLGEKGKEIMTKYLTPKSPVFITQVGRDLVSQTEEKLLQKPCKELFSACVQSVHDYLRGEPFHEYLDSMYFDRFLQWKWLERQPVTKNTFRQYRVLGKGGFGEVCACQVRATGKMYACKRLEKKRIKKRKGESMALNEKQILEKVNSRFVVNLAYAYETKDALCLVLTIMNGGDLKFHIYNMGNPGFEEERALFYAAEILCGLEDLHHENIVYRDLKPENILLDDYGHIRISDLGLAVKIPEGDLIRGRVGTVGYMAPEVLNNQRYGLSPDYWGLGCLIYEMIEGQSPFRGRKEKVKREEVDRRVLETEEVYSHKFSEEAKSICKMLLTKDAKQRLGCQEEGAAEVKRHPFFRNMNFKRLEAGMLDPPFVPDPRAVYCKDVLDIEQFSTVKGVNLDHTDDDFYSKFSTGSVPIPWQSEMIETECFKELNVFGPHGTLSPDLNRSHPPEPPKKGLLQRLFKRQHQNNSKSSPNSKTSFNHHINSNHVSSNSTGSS
Procedure text: Primary DSF inhibitor screen, GRK5
Assay type: binding
Applied conditions: 10 μM compound, 2 μM kinase, relative to DMSO control
Each entry gets Not met if its ΔTm, primary screen, GRK5 stays under 3 °C, and Met if its ΔTm, primary screen, GRK5 is 3 °C or above.

The following compounds have reported results that may help.
Compound	Class assignment
COc1cc2c(cc1Nc1nc(Nc3ccsc3C(N)=O)c3cc[nH]c3n1)N(C(=O)CN(C)C)CCC2 [GSK2110236A]	Met
O=C1NC(=O)C(c2c[nH]c3ccccc23)=C1c1c[nH]c2ccccc12 [BIM 4, bisindolylmaleimide IV]	Met
O=C1NC(=O)C(c2cn(CCCn3ccnc3)c3ccccc23)=C1Nc1ccccc1	Met

Q) Determine whether this compound has ΔTm, primary screen, GRK5 no lower than 3 °C: CC(C)n1cnc2c(Nc3cccc(Cl)c3)nc(NCCO)nc21
A) Met

Q) Does the compound Cc1cncc2cccc(S(=O)(=O)N3CCCNC[C@@H]3C)c12 have recorded ΔTm, primary screen, GRK5 that is 3 °C or more?
A) Met

Q) Given Cl.Cl.NCCNc1ncc(C(N)=O)c(Nc2cccc(C(F)(F)F)c2)n1 , state whether its ΔTm, primary screen, GRK5 is at least 3 °C.
A) Not met

----------
Assay target: bovine GRK5 (Bos taurus)
Construct: when using full-length kinases as the receptor[37] instead of isolated kinase domains; made in house
Procedure text: Primary DSF inhibitor screen, GRK5
Format: binding
Applied conditions: 10 μM compound, 2 μM kinase, relative to DMSO control
Reported ΔTm, primary screen, GRK5 values are given for each entry in this list.
Field: numeric (°C). Do not append units.

Some molecules with known ΔTm, primary screen, GRK5 results, for comparison:
Molecule	Assay target	Measure	Recorded measurement
CS(=O)(=O)c1cccc(CNc2nc(Nc3ccc4c(c3)CCC(=O)N4)ncc2C(F)(F)F)c1	bovine GRK5 (Bos taurus)	ΔTm, primary screen, GRK5	2.67
CN(C)CCCn1cc(C2=C(c3c[nH]c4ccccc34)C(=O)NC2=O)c2ccccc21.Cl	bovine GRK5 (Bos taurus)	ΔTm, primary screen, GRK5	6.45
Cn1cc(/C=C2\C(=O)Nc3ccc(S(N)(=O)=O)cc32)c2ccccc21	bovine GRK5 (Bos taurus)	ΔTm, primary screen, GRK5	3.6
Fc1cccc(COc2ccc(Nc3ncnc4cc(-c5ccc[nH]5)sc34)cc2Cl)c1 [GW693881A]	bovine GRK5 (Bos taurus)	ΔTm, primary screen, GRK5	6.9
O=C1c2ccccc2-c2n[nH]c3cccc1c23 [JNK Inhibitor II, Anthra[1,9-cd]pyrazol-6(2H)-one]	bovine GRK5 (Bos taurus)	ΔTm, primary screen, GRK5	2.19
COC(=O)[C@@]1(O)C[C@H]2O[C@]1(C)n1c3ccccc3c3c4c(c5c6ccccc6n2c5c31)C(=O)NC4 [K252a]	bovine GRK5 (Bos taurus)	ΔTm, primary screen, GRK5	9.89
Brc1c(Br)c(Br)c2[nH]nnc2c1Br	bovine GRK5 (Bos taurus)	ΔTm, primary screen, GRK5	8.22
Cl.Cn1cc(C2=C(c3c4n(c5ccccc35)CCC(CN)C4)C(=O)NC2=O)c2ccccc21 (centres unmarked) [BIM 10, Bisindolylmaleimide X, HCl]	bovine GRK5 (Bos taurus)	ΔTm, primary screen, GRK5	6.19
O	bovine GRK5 (Bos taurus)	ΔTm, primary screen, GRK5	2.01
CC(C)(C)c1nc2c3ccc(F)cc3c3c(=O)[nH]ccc3c2[nH]1	bovine GRK5 (Bos taurus)	ΔTm, primary screen, GRK5	8.13

Q) Please state recorded ΔTm, primary screen, GRK5 (tested on bovine GRK5 (Bos taurus)) of NC(=O)Nc1sc(-c2ccccc2)cc1C(N)=O
A) 2.57

Q) I'm curious: which ΔTm, primary screen, GRK5 was measured for O=C1Nc2ccccc2C1=Cc1c(Cl)[nH]c2ccccc12 tested on bovine GRK5 (Bos taurus)?
A) 2.98

Q) So what ΔTm, primary screen, GRK5 did Cc1cc(C=C2C(=O)C=CC2=O)cc(C)c1O get with bovine GRK5 (Bos taurus)?
A) 2.21

Q) Requested read-out ΔTm, primary screen, GRK5, target or system bovine GRK5 (Bos taurus), entry Nc1ncnc2c1c(I)cn2[C@@H]1O[C@H](CO)[C@@H](O)[C@H]1O
A) 2.22

----------
Assay target: human GRK2S670A (Homo sapiens, UniProt P25098, S670A)
Construct: when using full-length kinases as the receptor[37] instead of isolated kinase domains; made in house
Sequence (P25098 whole entry S670A, the tested form may be a part): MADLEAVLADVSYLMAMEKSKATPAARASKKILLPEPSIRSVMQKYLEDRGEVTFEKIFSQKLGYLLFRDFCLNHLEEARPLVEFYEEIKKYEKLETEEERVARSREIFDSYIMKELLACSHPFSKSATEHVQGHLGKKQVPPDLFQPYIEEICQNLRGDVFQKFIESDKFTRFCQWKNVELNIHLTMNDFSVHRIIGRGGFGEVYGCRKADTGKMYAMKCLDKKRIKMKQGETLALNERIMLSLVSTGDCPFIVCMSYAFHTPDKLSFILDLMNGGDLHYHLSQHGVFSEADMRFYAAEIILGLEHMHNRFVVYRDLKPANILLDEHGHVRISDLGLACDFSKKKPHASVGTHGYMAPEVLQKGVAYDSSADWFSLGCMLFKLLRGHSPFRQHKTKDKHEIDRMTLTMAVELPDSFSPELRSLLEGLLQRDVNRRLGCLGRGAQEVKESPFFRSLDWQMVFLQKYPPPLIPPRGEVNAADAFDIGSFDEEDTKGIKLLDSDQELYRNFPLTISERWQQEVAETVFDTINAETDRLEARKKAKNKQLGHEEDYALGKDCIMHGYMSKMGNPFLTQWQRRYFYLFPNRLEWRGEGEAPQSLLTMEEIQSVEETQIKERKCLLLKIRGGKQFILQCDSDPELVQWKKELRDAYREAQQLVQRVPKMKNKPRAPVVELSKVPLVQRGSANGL
Procedure text: Primary DSF (differential scanning fluorimetry) inhibitor screen, GRK2
Format: binding
Applied conditions: rank ordering of compounds in primary DSF screen; 10 μM compound
Measure: rank in the primary screen, GRK2
Respond using a number only.

Record excerpt, results attached:
Compound	Assay target	Measure	Recorded measurement
CC1=C(C(=O)Nc2ccc3[nH]ncc3c2)C(c2ccc(Cl)c(Cl)c2)CC(=O)N1 (centres unmarked) [GSK299115A]	human GRK2S670A (Homo sapiens, UniProt P25098, S670A)	rank in the primary screen, GRK2	4
CC1=C(C(=O)Nc2cc(Cl)c3[nH]ncc3c2)C(c2ccc(C(F)(F)F)cc2)CC(=O)N1 (centres unmarked) [GSK466317A]	human GRK2S670A (Homo sapiens, UniProt P25098, S670A)	rank in the primary screen, GRK2	8
CC1=C(C(=O)Nc2ccc3[nH]ncc3c2)C(c2ccc(F)cc2)NC(c2ccc(C(F)(F)F)nc2)=N1 (centres unmarked) [GSK317354A]	human GRK2S670A (Homo sapiens, UniProt P25098, S670A)	rank in the primary screen, GRK2	6

Q) Any idea what rank in the primary screen, GRK2 was measured for CCn1c(-c2nonc2N)nc2c(C#CC(C)(C)O)nc(O[C@@H](CN)c3ccccc3)cc21 [GSK1007102B] ?
A) 1

Q) State the recorded rank in the primary screen, GRK2 for this entry: CC1=C(C(=O)Nc2ccc3[nH]ncc3c2)C(c2ccc3ccccc3c2)CC(=O)N1 (centres unmarked) [GSK270822A]
A) 5

----------
Assay target: GRK5 (Bos taurus)
Construct: when using full-length kinases as the receptor[37] instead of isolated kinase domains; made in house
Procedure text: DSF retest (confirmation), GRK5
Format: binding, bovine
Applied conditions: relative to intrinsic melting point of the kinase
Class y: GRK5 ΔTm at least 1 °C. Class n: GRK5 ΔTm below 1 °C.

Q) Check the entry CC1=C(C(=O)Nc2ccc3[nH]ncc3c2)C(c2ccc(Cl)c(Cl)c2)CC(=O)N1 (stereo not shown) [GSK299115A] : does GRK5 ΔTm equal or exceed 1 °C?
A) y

Q) Hello, I need to know if CC(C)COC(=O)c1ccc2c(c1)/C(=C/Nc1ccc(S(N)(=O)=O)cc1)C(=O)N2 [GW416981X] has measured GRK5 ΔTm not below 1 °C. Thanks!
A) y

Q) Has CCCN1CCC(c2ccc(Nc3nc(Nc4cc(F)ccc4C(N)=O)c4cc[nH]c4n3)c(OC)c2)CC1 [GSK1326255A] a recorded GRK5 ΔTm greater than or equal to 1 °C?
A) y

Q) GRK5 ΔTm >= 1 °C for CCn1c(-c2nonc2N)nc2c(C#CC(C)(C)O)nc(O[C@@H](CN)c3ccccc3)cc21 [GSK1007102B] ?
A) y

Q) Hi, just wondering whether Fc1cccc(COc2ccc(Nc3ncnc4cc(-c5ccc[nH]5)sc34)cc2Cl)c1 [GW693881A] shows GRK5 ΔTm of 1 °C or higher.
A) n

Q) Entry CC1=C(C(=O)Nc2cc(Cl)c3[nH]ncc3c2)C(c2ccc(C(F)(F)F)cc2)CC(=O)N1 (stereo not shown) [GSK466317A] : is its GRK5 ΔTm no less than 1 °C?
A) y

Q) Reported GRK5 ΔTm reaches at least 1 °C for CC1=C(C(=O)Nc2ccc3[nH]ncc3c2)C(c2ccc(F)cc2)NC(c2ccc(C(F)(F)F)nc2)=N1 (stereo not shown) [GSK317354A] ?
A) n

Q) Does GRK5 ΔTm meet or surpass 1 °C for CC1=C(C(=O)Nc2ccc3[nH]ncc3c2)C(c2ccc3ccccc3c2)CC(=O)N1 (stereo not shown) [GSK270822A] ?
A) y

Q) State whether the measured GRK5 ΔTm reaches 1 °C, counting equality as reaching it, for CNC(=O)c1ncccc1Nc1nc(Nc2cc3c(cc2OC)CCCN3C(=O)CN(C)C)nc2[nH]ccc12 [GSK2220400A]
A) y

----------
Assay target: human GRK2S670A (Homo sapiens, UniProt P25098, S670A)
Construct: when using full-length kinases as the receptor[37] instead of isolated kinase domains; made in house
Procedure text: Primary DSF (differential scanning fluorimetry) inhibitor screen, GRK2
Format: binding
Applied conditions: 10 μM compound, 2 μM kinase, relative to DMSO control; read-out: ΔTm, primary screen, GRK2
# if value of ΔTm at 10 µM reaches 4 °C, tag label 1; if it stays below, tag label 0

Below, 5 compounds whose answers are already recorded.
Compound	Class assignment
CC1=C(C(=O)Nc2ccc3[nH]ncc3c2)C(c2ccc(Cl)c(Cl)c2)CC(=O)N1 (stereo not drawn) [GSK299115A]	label 1
CCCN1CCC(c2ccc(Nc3nc(Nc4cc(F)ccc4C(N)=O)c4cc[nH]c4n3)c(OC)c2)CC1 [GSK1326255A]	label 0
CC1=C(C(=O)Nc2ccc3[nH]ncc3c2)C(c2ccc3ccccc3c2)CC(=O)N1 (stereo not drawn) [GSK270822A]	label 0
CC1=C(C(=O)Nc2cc(Cl)c3[nH]ncc3c2)C(c2ccc(C(F)(F)F)cc2)CC(=O)N1 (stereo not drawn) [GSK466317A]	label 0
CCn1c(-c2nonc2N)nc2c(C#CC(C)(C)O)nc(O[C@@H](CN)c3ccccc3)cc21 [GSK1007102B]	label 1

Here is another compound to look at.
Q) Determine whether measured ΔTm at 10 µM meets or exceeds 4 °C for CC1=C(C(=O)Nc2ccc3[nH]ncc3c2)C(c2ccc(F)cc2)NC(c2ccc(C(F)(F)F)nc2)=N1 (stereo not drawn) [GSK317354A]
A) label 0
